The reported numbers originate from patent US20250388667A1.

TARGET_SYSTEM: T1, Nectin-4 on T-47D cells (human, UniProt Q96NY8 32-510)
T1 construct: whole, on cells; endogenous expression; also called T-47D cells positive for Nectin-4 expression
T1 sequence (looked up): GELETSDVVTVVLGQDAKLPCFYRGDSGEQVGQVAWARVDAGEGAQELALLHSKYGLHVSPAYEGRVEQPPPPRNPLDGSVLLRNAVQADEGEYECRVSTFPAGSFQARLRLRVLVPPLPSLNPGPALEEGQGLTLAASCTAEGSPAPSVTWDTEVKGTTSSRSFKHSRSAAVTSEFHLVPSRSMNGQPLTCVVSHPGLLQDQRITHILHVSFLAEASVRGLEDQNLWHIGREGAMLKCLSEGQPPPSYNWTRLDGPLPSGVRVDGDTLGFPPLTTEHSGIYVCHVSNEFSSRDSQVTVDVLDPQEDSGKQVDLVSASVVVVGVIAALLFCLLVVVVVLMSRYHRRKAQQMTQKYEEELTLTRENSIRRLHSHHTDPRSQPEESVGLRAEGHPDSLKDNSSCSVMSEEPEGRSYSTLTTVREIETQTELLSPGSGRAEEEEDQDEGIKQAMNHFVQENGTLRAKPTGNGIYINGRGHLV
PROTOCOL_SUMMARY: FACS on T-47D cells, 10 µg/mL on ice, 0 h point of the endocytosis assay
MEASURED_ENDPOINT: MFI (0 h) (MFI)
Answers are plain numbers, in MFI.

# annotated cases, reported MFI (0 h) shown
[[record]]
binder = "antibody 1F3-1B1 (antibody, human IgG1, kappa, V domains shown, intact antibody) VH: EVQLVESGGGLVQPGGSLRLSCAASGFTFGTYGMSWVRQAPGKGLEWVSGIKPGDSTTYYADSVKGRFTISRDNSKNTLYLQMNSLRAEDTAVYYCARAELLAFDVYTASDYWGQGTLVTVSS VL: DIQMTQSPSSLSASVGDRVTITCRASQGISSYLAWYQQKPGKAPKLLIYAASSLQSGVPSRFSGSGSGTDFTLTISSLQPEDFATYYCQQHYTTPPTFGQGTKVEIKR"
measured_number = 65300

[[record]]
binder = "antibody 10F4-1 (antibody, human IgG1, kappa, V domains shown, intact antibody) VH: EVQLVESGGGLVQPGGSLRLSCAASGDSFTNYWMSWVRQAPGKGLEWVSGISQGGSYAYYADSVKGRFTISRDNSKNTLYLQMNSLRAEDTAVYYCAREYSDVVDYVSVRTPLDYWGQGTLVTVSS VL: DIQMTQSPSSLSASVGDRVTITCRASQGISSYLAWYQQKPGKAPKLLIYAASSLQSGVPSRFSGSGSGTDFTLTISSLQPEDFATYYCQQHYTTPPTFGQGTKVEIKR"
measured_number = 58600

[[record]]
binder = "antibody 1F3-2F3 (antibody, human IgG1, kappa, V domains shown, intact antibody) VH: EVQLVESGGGLVQPGGSLRLSCAASGFNFSDYGMSWVRQAPGKGLEWVSRIDWDGGNTRYADSVKGRFTISRDNSKNTLYLQMNSLRAEDTAVYYCARAELLAFDVYTASDYWGQGTLVTVSS VL: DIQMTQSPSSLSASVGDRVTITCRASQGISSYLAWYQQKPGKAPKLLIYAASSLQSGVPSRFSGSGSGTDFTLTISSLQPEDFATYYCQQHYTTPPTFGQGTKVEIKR"
measured_number = 69000

[[record]]
binder = "antibody 1F3-1E1 (antibody, human IgG1, kappa, V domains shown, intact antibody) VH: EVQLVESGGGLVQPGGSLRLSCAASGFSFDDYAMSWVRQAPGKGLEWVSIIYPTGSTNYYADSVKGRFTISRDNSKNTLYLQMNSLRAEDTAVYYCARAELLAFDVYTASDYWGQGTLVTVSS VL: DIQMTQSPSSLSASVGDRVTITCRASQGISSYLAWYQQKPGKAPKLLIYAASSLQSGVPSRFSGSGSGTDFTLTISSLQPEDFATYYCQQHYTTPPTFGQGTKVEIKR"
measured_number = 73400

[[record]]
binder = "antibody 1F3-2E8 (antibody, human IgG1, kappa, V domains shown, intact antibody) VH: EVQLVESGGGLVQPGGSLRLSCAASGYSFSDYGMSWVRQAPGKGLEWVSWISPSKGSASYADSVKGRFTISRDNSKNTLYLQMNSLRAEDTAVYYCARAELLAFDVYTASDYWGQGTLVTVSS VL: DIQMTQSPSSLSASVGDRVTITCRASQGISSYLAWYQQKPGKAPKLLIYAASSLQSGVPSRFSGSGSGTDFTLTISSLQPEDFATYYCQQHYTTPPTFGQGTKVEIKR"
measured_number = 58200

[[record]]
binder = "antibody 10F4-5 (antibody, human IgG1, kappa, V domains shown, intact antibody) VH: EVQLVESGGGLVQPGGSLRLSCAASGFIFDGYDMSWVRQAPGKGLEWVSVIKDHGGYKFYADSVKGRFTISRDNSKNTLYLQMNSLRAEDTAVYYCAREYSDVVDYVSVRTPLDYWGQGTLVTVSS VL: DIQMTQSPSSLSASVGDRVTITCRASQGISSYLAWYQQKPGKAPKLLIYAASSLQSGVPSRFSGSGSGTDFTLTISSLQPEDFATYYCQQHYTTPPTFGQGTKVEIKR"
measured_number = 63400

[[record]]
binder = "reference antibody ASG-22 (antibody, human IgG1, kappa, V domains shown) VH: EVQLVESGGGLVQPGGSLRLSCAASGFTFSSYNMNWVRQAPGKGLEWVSYISSSSSTIYYADSVKGRFTISRDNAKNSLSLQMNSLRDEDTAVYYCARAYYYGMDVWGQGTLVTVSS VL: DIQMTQSPSSVSASVGDRVTITCRASQGISGWLAWYQQKPGKAPKFLIYAASTLQSGVPSRFSGSGSGTDFTLTISSLQPEDFATYYCQQANSFPPTFGGGTKVEIKR"
measured_number = 58600

[[record]]
binder = "antibody 10F4-3 (antibody, human IgG1, kappa, V domains shown, intact antibody) VH: EVQLVESGGGLVQPGGSLRLSCAASGFSFGDFAMSWVRQAPGKGLEWVSVIDGHTAYNSYADSVKGRFTISRDNSKNTLYLQMNSLRAEDTAVYYCAREYSDVVDYVSVRTPLDYWGQGTLVTVSS VL: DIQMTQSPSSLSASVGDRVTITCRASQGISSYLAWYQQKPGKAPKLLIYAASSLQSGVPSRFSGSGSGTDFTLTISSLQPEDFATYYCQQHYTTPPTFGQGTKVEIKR"
measured_number = 61200

[[record]]
binder = "antibody 1F3-2B1 (antibody, human IgG1, kappa, V domains shown, intact antibody) VH: EVQLVESGGGLVQPGGSLRLSCAASGYNFDNYAMSWVRQAPGKGLEWVSGIKPDSATTYYADSVKGRFTISRDNSKNTLYLQMNSLRAEDTAVYYCARAELLAFDVYTASDYWGQGTLVTVSS VL: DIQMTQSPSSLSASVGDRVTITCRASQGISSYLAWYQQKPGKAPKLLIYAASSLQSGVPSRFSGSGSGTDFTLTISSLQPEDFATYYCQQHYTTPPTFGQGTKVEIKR"
measured_number = 59400


# input for lookup
Query string: Indicate its recorded MFI (0 h); the binder in question is antibody 1F3-1G11 (antibody, human IgG1, kappa, V domains shown, intact antibody) VH: EVQLVESGGGLVQPGGSLRLSCAASGYSFTGYGMSWVRQAPGKGLEWVSGISPSGGTIGYADSVKGRFTISRDNSKNTLYLQMNSLRAEDTAVYYCARAELLAFDVYTASDYWGQGTLVTVSS VL: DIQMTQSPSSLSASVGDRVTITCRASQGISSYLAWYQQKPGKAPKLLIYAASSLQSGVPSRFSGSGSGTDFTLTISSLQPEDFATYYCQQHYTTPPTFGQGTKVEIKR
Result string: 60500
